Assay: Assessment of dynamic solubility
Assay type: physicochemical
Details: fed state simulated intestinal fluid (FeSSIF), 37 °C, fessif, thermodynamic from solid, FeSSIF, 1 h, read-out: S: solubility, calculated as free form
testReadout: solubility at 1 h (µg/mL)
The answer is to be given in µg/mL; state only the numeric part.

q: Report measured solubility at 1 h; entry is CC[S@@](=N)(=O)C[C@H]1CC[C@H](N(C)c2ncnc3[nH]ccc23)CC1 [Free crystal form A]
a: 9400

====

Experiment: Acute toxicity test, single oral intragastric administration
Assay type: in vivo
Conditions: Sprague-Dawley, rat, in vivo, po; male rats, single intragastric administration, 7 d observation; read-out: LD50
testReadout: LD50 at 7 d (mg/kg)
The answer is to be given in mg/kg; state only the numeric part.

q: Report measured LD50 at 7 d; entry is CC[S@@](=N)(=O)C[C@H]1CC[C@H](N(C)c2ncnc3[nH]ccc23)CC1 [Free crystal form A]
a: 592
